conditions: in n-butanol, 303.15 K
property: solubility (mole fraction)

Recorded solubility (mole fraction) of `S=c1[nH]c2ccccc2s1` , please. 0.0386

----------
conditions: in 1,4-dioxane, 305.65 K
property: solubility (mole fraction)
Just the number, please, no unit attached.

Recorded solubility (mole fraction) of `S=c1[nH]c2ccccc2s1` , please. 0.0742

----------
settings: in methanol, 298.15 K
property: solubility (mole fraction)
Just the number, please, no unit attached.

Recorded solubility (mole fraction) of `S=c1[nH]c2ccccc2s1` , please. 0.0164

----------
conditions: in ethyl acetate, 308.15 K
property: solubility (mole fraction)
Just the number, please, no unit attached.

Recorded solubility (mole fraction) of `S=c1[nH]c2ccccc2s1` , please. 0.0465

----------
settings: in n-propanol, 283.15 K
property: solubility (mole fraction)

Recorded solubility (mole fraction) of `S=c1[nH]c2ccccc2s1` , please. 0.0194

----------
settings: in n-propanol, 313.15 K
property: solubility (mole fraction)
Just the number, please, no unit attached.

Recorded solubility (mole fraction) of `S=c1[nH]c2ccccc2s1` , please. 0.038

----------
settings: in isopropanol, 315.65 K
property: solubility (mole fraction)
Just the number, please, no unit attached.

Recorded solubility (mole fraction) of `S=c1[nH]c2ccccc2s1` , please. 0.0378

----------
conditions: in ethyl acetate, 310.65 K
property: solubility (mole fraction)

Recorded solubility (mole fraction) of `S=c1[nH]c2ccccc2s1` , please. 0.0482

----------
settings: in toluene, 313.15 K
property: solubility (mole fraction)
Just the number, please, no unit attached.

Recorded solubility (mole fraction) of `S=c1[nH]c2ccccc2s1` , please. 0.00544

----------
settings: in acetonitrile, 308.15 K
property: solubility (mole fraction)
Just the number, please, no unit attached.

Recorded solubility (mole fraction) of `S=c1[nH]c2ccccc2s1` , please. 0.0127

----------
settings: in 1,4-dioxane, 285.65 K
property: solubility (mole fraction)
Just the number, please, no unit attached.

Recorded solubility (mole fraction) of `S=c1[nH]c2ccccc2s1` , please. 0.0438

----------
details: in 2-butanone, 290.65 K
property: solubility (mole fraction)
Just the number, please, no unit attached.

Recorded solubility (mole fraction) of `S=c1[nH]c2ccccc2s1` , please. 0.0902

----------
conditions: in acetonitrile, 318.15 K
property: solubility (mole fraction)

Recorded solubility (mole fraction) of `S=c1[nH]c2ccccc2s1` , please. 0.0167

----------
details: in isopropanol, 310.65 K
property: solubility (mole fraction)
Just the number, please, no unit attached.

Recorded solubility (mole fraction) of `S=c1[nH]c2ccccc2s1` , please. 0.0328

----------
conditions: in 2-butanone, 310.65 K
property: solubility (mole fraction)
Just the number, please, no unit attached.

Recorded solubility (mole fraction) of `S=c1[nH]c2ccccc2s1` , please. 0.116

----------
conditions: in methanol, 288.15 K
property: solubility (mole fraction)

Recorded solubility (mole fraction) of `S=c1[nH]c2ccccc2s1` , please. 0.0121

----------
details: in n-propanol, 303.15 K
property: solubility (mole fraction)
Just the number, please, no unit attached.

Recorded solubility (mole fraction) of `S=c1[nH]c2ccccc2s1` , please. 0.0309

----------
conditions: in chloroform, 308.15 K
property: solubility (mole fraction)
Just the number, please, no unit attached.

Recorded solubility (mole fraction) of `S=c1[nH]c2ccccc2s1` , please. 0.0149

----------
details: in 2-butanone, 300.65 K
property: solubility (mole fraction)
Just the number, please, no unit attached.

Recorded solubility (mole fraction) of `S=c1[nH]c2ccccc2s1` , please. 0.103

----------
conditions: in n-propanol, 300.65 K
property: solubility (mole fraction)
Just the number, please, no unit attached.

Recorded solubility (mole fraction) of `S=c1[nH]c2ccccc2s1` , please. 0.029

----------
conditions: in isobutanol, 303.15 K
property: solubility (mole fraction)
Just the number, please, no unit attached.

Recorded solubility (mole fraction) of `S=c1[nH]c2ccccc2s1` , please. 0.027

----------
settings: in n-propanol, 280.65 K
property: solubility (mole fraction)
Just the number, please, no unit attached.

Recorded solubility (mole fraction) of `S=c1[nH]c2ccccc2s1` , please. 0.0181

----------
settings: in methanol, 308.15 K
property: solubility (mole fraction)
Just the number, please, no unit attached.

Recorded solubility (mole fraction) of `S=c1[nH]c2ccccc2s1` , please. 0.022

----------
settings: in 2-butanone, 275.65 K
property: solubility (mole fraction)
Just the number, please, no unit attached.

Recorded solubility (mole fraction) of `S=c1[nH]c2ccccc2s1` , please. 0.0722

----------
conditions: in acetonitrile, 295.65 K
property: solubility (mole fraction)
Just the number, please, no unit attached.

Recorded solubility (mole fraction) of `S=c1[nH]c2ccccc2s1` , please. 0.00885

----------
settings: in n-butanol, 278.15 K
property: solubility (mole fraction)
Just the number, please, no unit attached.

Recorded solubility (mole fraction) of `S=c1[nH]c2ccccc2s1` , please. 0.0224

----------
conditions: in n-propanol, 275.65 K
property: solubility (mole fraction)
Just the number, please, no unit attached.

Recorded solubility (mole fraction) of `S=c1[nH]c2ccccc2s1` , please. 0.016

----------
details: in acetonitrile, 305.65 K
property: solubility (mole fraction)
Just the number, please, no unit attached.

Recorded solubility (mole fraction) of `S=c1[nH]c2ccccc2s1` , please. 0.0118

----------
settings: in acetonitrile, 278.15 K
property: solubility (mole fraction)
Just the number, please, no unit attached.

Recorded solubility (mole fraction) of `S=c1[nH]c2ccccc2s1` , please. 0.00507

----------
settings: in isobutanol, 300.65 K
property: solubility (mole fraction)
Just the number, please, no unit attached.

Recorded solubility (mole fraction) of `S=c1[nH]c2ccccc2s1` , please. 0.0252

----------
settings: in ethyl acetate, 305.65 K
property: solubility (mole fraction)
Just the number, please, no unit attached.

Recorded solubility (mole fraction) of `S=c1[nH]c2ccccc2s1` , please. 0.0448

----------
conditions: in n-propanol, 305.65 K
property: solubility (mole fraction)

Recorded solubility (mole fraction) of `S=c1[nH]c2ccccc2s1` , please. 0.0324

----------
conditions: in toluene, 283.15 K
property: solubility (mole fraction)
Just the number, please, no unit attached.

Recorded solubility (mole fraction) of `S=c1[nH]c2ccccc2s1` , please. 0.00254

----------
conditions: in ethyl acetate, 293.15 K
property: solubility (mole fraction)
Just the number, please, no unit attached.

Recorded solubility (mole fraction) of `S=c1[nH]c2ccccc2s1` , please. 0.0374

----------
details: in n-butanol, 315.65 K
property: solubility (mole fraction)
Just the number, please, no unit attached.

Recorded solubility (mole fraction) of `S=c1[nH]c2ccccc2s1` , please. 0.0489

----------
conditions: in 1,4-dioxane, 308.15 K
property: solubility (mole fraction)
Just the number, please, no unit attached.

Recorded solubility (mole fraction) of `S=c1[nH]c2ccccc2s1` , please. 0.079

----------
conditions: in n-butanol, 298.15 K
property: solubility (mole fraction)

Recorded solubility (mole fraction) of `S=c1[nH]c2ccccc2s1` , please. 0.0349

----------
conditions: in methanol, 315.65 K
property: solubility (mole fraction)
Just the number, please, no unit attached.

Recorded solubility (mole fraction) of `S=c1[nH]c2ccccc2s1` , please. 0.0269

----------
conditions: in n-butanol, 290.65 K
property: solubility (mole fraction)

Recorded solubility (mole fraction) of `S=c1[nH]c2ccccc2s1` , please. 0.0299

----------
conditions: in toluene, 310.65 K
property: solubility (mole fraction)
Just the number, please, no unit attached.

Recorded solubility (mole fraction) of `S=c1[nH]c2ccccc2s1` , please. 0.0051

----------
details: in toluene, 273.15 K
property: solubility (mole fraction)
Just the number, please, no unit attached.

Recorded solubility (mole fraction) of `S=c1[nH]c2ccccc2s1` , please. 0.00192

----------
conditions: in n-propanol, 308.15 K
property: solubility (mole fraction)
Just the number, please, no unit attached.

Recorded solubility (mole fraction) of `S=c1[nH]c2ccccc2s1` , please. 0.0342

----------
conditions: in 1,4-dioxane, 298.15 K
property: solubility (mole fraction)
Just the number, please, no unit attached.

Recorded solubility (mole fraction) of `S=c1[nH]c2ccccc2s1` , please. 0.0613

----------
conditions: in n-propanol, 293.15 K
property: solubility (mole fraction)
Just the number, please, no unit attached.

Recorded solubility (mole fraction) of `S=c1[nH]c2ccccc2s1` , please. 0.0245

----------
conditions: in isopropanol, 290.65 K
property: solubility (mole fraction)
Just the number, please, no unit attached.

Recorded solubility (mole fraction) of `S=c1[nH]c2ccccc2s1` , please. 0.0175

----------
conditions: in 1,4-dioxane, 318.15 K
property: solubility (mole fraction)

Recorded solubility (mole fraction) of `S=c1[nH]c2ccccc2s1` , please. 0.101
